Biological target: T1, Peptide-biotin
T1 construct: also called antigen
T1 sequence (Q8TD43 other isoform, or with tags, fused parts or gaps): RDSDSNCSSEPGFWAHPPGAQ
Experiment: SPR Biacore 8K affinity ranking; antibody Fc-captured, Peptide-biotin analyte, 1:1 fit
property-measured: koff (s⁻¹)
Form entry: value (s⁻¹) — number only.

Some binders with known koff results, for comparison:
{"columns": ["binder", "koff (s⁻¹)"],
 "data": [
  ["humanized anti-TRPM4 antibody VH2 + VL3 (antibody, V domains shown, Full-length IgG) VH: QVQLQESGPGLVKPSQTLSLTCTVSGYSITSDYAWNWIRQHPGKGLEWMGYLSYSGVTSYNPSLKGRVTISRDTSKNQFSLKLSSVTAADTAVYYCARKGTYYRYEGSYWYFDVWGQGTTVTVSS VL: DIQMTQSPSSLSASVGDRVTITCHANQNIDVWLSWYQQKPGNAPKLLIYKTSNLHTGVPSRFSGSGSGTDFTFTISSLQPEDIATYYCQQGQSYPLTFGGGTKLEIKR", 0.00219],
  ["anti-TRPM4 chimeric antibody clone A1 (VH + VL) (antibody, V domains shown, also called VH + VL (A1)) VH: QVQLQESGPGLVKPSQSLSLTCTVTGYSITSDYAWNWIRQFPGNKLQWMGYLSYSGVTSYNPSLKGRISITRDTSKNQFFLQLSSVTPEDTATYYCARKGTYYRYEGSYWYFDVWGAGTTVTVSS VL: DIQMNQSPSSLSASLGDTITITCHANQNIDVWLSWYQQKPGNVPKLLIYKTSNLHTGVPSRFSGSGSGTDFTLTISSLQPEDIATYYCQQGQSYPLTFGGGTKLEIK", 0.0015]
]}

Next:
// humanized anti-TRPM4 antibody VH3 + VL1 (antibody, V domains shown, Full-length IgG) VH: QVQLQESGPGLVKPSQTLSLTCTVSGYSITSDYAWNWIRQHPGKGLQWMGYLSYSGVTSYNPSLKGRITISRDTSKNQFSLKLSSVTAADTAVYYCARKGTYYRYEGSYWYFDVWGQGTTVTVSS VL: DIQMTQSPSSLSASVGDRVTITCHANQNIDVWLSWYQQKPGKAPKLLIYKTSNLHTGVPSRFSGSGSGTDFTFTISSLQPEDIATYYCQQGQSYPLTFGGGTKLEIKR : koff value = 0.00149
